assay-target: Xanthine dehydrogenase/oxidase (Bos taurus, UniProt P80457)
Sequence (P80457 whole entry): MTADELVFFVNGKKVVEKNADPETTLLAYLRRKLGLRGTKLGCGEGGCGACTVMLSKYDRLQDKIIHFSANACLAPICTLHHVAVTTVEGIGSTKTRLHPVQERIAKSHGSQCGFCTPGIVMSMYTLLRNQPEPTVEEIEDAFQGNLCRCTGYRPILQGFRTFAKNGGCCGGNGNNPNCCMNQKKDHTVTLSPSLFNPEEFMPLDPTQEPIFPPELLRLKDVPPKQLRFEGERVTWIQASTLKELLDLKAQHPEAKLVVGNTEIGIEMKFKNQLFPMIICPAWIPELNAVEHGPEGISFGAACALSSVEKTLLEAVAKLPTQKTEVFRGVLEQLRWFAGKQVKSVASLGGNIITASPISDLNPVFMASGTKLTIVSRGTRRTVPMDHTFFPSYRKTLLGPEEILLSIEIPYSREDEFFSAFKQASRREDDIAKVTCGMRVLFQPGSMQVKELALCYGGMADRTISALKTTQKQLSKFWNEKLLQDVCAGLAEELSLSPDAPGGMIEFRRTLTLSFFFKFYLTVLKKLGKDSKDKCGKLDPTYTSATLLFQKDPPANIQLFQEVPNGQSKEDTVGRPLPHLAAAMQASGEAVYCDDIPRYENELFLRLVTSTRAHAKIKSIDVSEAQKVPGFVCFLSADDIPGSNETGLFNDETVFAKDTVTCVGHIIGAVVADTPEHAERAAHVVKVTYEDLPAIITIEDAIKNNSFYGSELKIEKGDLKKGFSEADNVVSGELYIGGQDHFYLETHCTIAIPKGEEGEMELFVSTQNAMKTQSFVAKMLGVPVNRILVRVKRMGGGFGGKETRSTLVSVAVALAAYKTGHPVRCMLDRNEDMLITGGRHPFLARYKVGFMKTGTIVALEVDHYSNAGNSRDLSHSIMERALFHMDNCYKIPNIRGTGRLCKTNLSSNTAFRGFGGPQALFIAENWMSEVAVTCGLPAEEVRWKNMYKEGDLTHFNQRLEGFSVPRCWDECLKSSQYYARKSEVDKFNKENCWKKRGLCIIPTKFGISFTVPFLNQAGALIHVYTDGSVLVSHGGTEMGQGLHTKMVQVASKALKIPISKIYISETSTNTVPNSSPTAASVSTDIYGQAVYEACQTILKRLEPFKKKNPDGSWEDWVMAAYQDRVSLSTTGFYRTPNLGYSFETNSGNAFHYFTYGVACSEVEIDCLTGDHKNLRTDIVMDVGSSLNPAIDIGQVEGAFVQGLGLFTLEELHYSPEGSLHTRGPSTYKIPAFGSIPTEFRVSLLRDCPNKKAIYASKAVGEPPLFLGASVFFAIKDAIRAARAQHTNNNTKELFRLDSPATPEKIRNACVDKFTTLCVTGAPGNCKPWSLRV
quantity-name: pIC50
FYI, pIC50 means -log10 of a concentration in mol per litre.

Give pIC50 (Xanthine dehydrogenase/oxidase (Bos taurus, UniProt P80457)) of the following compound: COC(=O)C1=C(C)Oc2ccc3ccccc3c2C1c1cccs1 (stereo unspecified) 5.40

====

assay-target: Xanthine dehydrogenase/oxidase (Bos taurus, UniProt P80457)
assay: Inhibition of bovine milk xanthine oxidase using xanthine as substrate assessed as decrease in uric acid formation at 50 uM preincubated for 5 mins
assay-context: cattle
quantity-name: inhibition at 50 µM

- compound: "CCOC(=O)C1=C(C)Oc2ccc3ccccc3c2C1c1ccco1 (stereo unspecified)"
  quantity-name: "inhibition at 50 µM"
  result: "88.6%"

Entry COC(=O)C1=C(C)Oc2ccc3ccccc3c2C1c1sccc1C (stereo unspecified) : reported inhibition at 50 µM = ? 93.3%

Entry COC(=O)C1=C(C)Oc2ccc3ccccc3c2C1c1ccc(OC)c(OC)c1 (stereo unspecified) : reported inhibition at 50 µM = ? 78.2%

Entry COC(=O)C1=C(C)Oc2ccc3ccccc3c2C1c1ccc(OC)cc1 (stereo unspecified) : reported inhibition at 50 µM = ? 68.7%

Entry COC(=O)C1=C(C)Oc2ccc3ccccc3c2C1c1cccs1 (stereo unspecified) : reported inhibition at 50 µM = ? 96.6%

Entry CCOC(=O)C1=C(C)Oc2ccc3ccccc3c2C1c1ccc(OC)c(OC)c1 (stereo unspecified) : reported inhibition at 50 µM = ? 62.3%

====

assay-target: Xanthine dehydrogenase/oxidase (Bos taurus)
assay: Inhibition of bovine milk xanthine oxidase using xanthine as substrate assessed as decrease in uric acid formation at 50 uM preincubated for 5 mins
assay-context: cattle
A collection of compounds and their measured inhibition at 50 µM
Form entry: value (%) — number only.

- compound: "CCOC(=O)C1=C(C)Oc2ccc3ccccc3c2C1c1ccc(OC)c(O)c1 (stereo not given)"
  units-of-measure: "%"
  measured-number: 64.7
- compound: "COC(=O)C1=C(C)Oc2ccc3ccccc3c2C1c1ccc[nH]1 (stereo not given)"
  units-of-measure: "%"
  measured-number: 94.5
- compound: "CCOC(=O)C1=C(C)Oc2ccc3ccccc3c2C1c1ccccc1 (stereo not given)"
  units-of-measure: "%"
  measured-number: 65.2
- compound: "CCOC(=O)C1=C(C)Oc2ccc3ccccc3c2C1c1ccc(OC)cc1 (stereo not given)"
  units-of-measure: "%"
  measured-number: 56.5
- compound: "COC(=O)C1=C(C)Oc2ccc3ccccc3c2C1c1ccco1 (stereo not given)"
  units-of-measure: "%"
  measured-number: 92.5

Entry COC(=O)C1=C(C)Oc2ccc3ccccc3c2C1c1ccc(O)c(OC)c1 (stereo not given) : reported inhibition at 50 µM = ? 67.5

Entry COC(=O)C1=C(C)Oc2ccc3ccccc3c2C1c1cc(OC)c(OC)c(OC)c1 (stereo not given) : reported inhibition at 50 µM = ? 50

Entry COC(=O)C1=C(C)Oc2ccc3ccccc3c2C1 : reported inhibition at 50 µM = ? 32

Entry CCOC(=O)C1=C(C)Oc2ccc3ccccc3c2C1/C=C/c1ccccc1 (stereo not given) : reported inhibition at 50 µM = ? 11.3

Entry COC(=O)C1=C(C)Oc2ccc3ccccc3c2C1c1ccc(Cl)cc1 (stereo not given) : reported inhibition at 50 µM = ? 23.9
